protocol text: Liver microsomal stability, human
Assay type: in vitro ADME
condition info: pooled liver microsomes, pH 7.4; human liver microsomes 0.5 mg/mL, 1 μM compound, NADPH, 37° C.; read-out: Liver Microsomal Stability t½, human
measure name: half-life at 1 μM (min)
// return numeric value only (unit: min, not printed)

Ask: Fill in half-life at 1 μM for record O=C(N[C@H]1N=C(c2ccccc2)c2cccc(F)c2NC1=O)c1cnn(C2COC2)c1Oc1ccc(Cl)cc1F [Example 3]
Result: 24.5

Ask: Fill in half-life at 1 μM for record O=C(N[C@H]1N=C(c2ccccc2)c2cccc(F)c2NC1=O)c1cnn(C2COC2)c1Oc1c(F)cc(Cl)cc1F [Example 5]
Result: 15.8

Ask: Fill in half-life at 1 μM for record CCn1ncc(C(=O)N[C@H]2N=C(c3ccccc3)c3ccccc3NC2=O)c1Oc1c(F)cc(C)cc1F [Example 1]
Result: 36

Ask: Fill in half-life at 1 μM for record O=C(N[C@H]1N=C(c2ccccc2)c2cccc(F)c2NC1=O)c1cnn(C2CCOCC2)c1Oc1ccc(Cl)cc1F [Example 4]
Result: 38.8
